Target: recombinant eIF4E (Homo sapiens (Human), UniProt P06730)
Sequence (P06730 whole entry): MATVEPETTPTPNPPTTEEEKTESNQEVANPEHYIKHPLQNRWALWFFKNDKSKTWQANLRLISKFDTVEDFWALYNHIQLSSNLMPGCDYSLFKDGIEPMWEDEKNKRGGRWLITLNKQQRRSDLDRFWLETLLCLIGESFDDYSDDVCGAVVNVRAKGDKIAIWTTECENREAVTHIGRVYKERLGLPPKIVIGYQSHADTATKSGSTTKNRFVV
Assay: Fluorescence polarization competition assay for eIF4E binding potency
Settings: inhibition of eIF4E/EDA-m7GDP-ATTO-550 binding by 50%; Table 4B calculated values; read-out: IC50
Description: Compounds were screened for eIF4E binding potency using a fluorescence polarization competition assay. All binding reactions were performed in fluorescence polarization buffer (FPB) containing 20 mM Tris pH 7.5, 100 mM NaCl, 1 mM DTT, and 0.02% Tween-20. Final binding reactions contained 75 nM recombinant eIF4E (Beryllium, custom order), 20 nM EDA-m^7GDP-ATTO-550 (Jena Bioscience, NU-827-550) and varying concentrations of the inhibitory compound of interest. […]
pIC50: −log10 of the molar value.
property_label: pIC50

Answered cases to consult:
Cc1ccc(-c2cc(Cl)ccc2OCCn2c(C)nc3c(C#N)nc(-c4cccnc4)c(C)c3c2=O)c2scc(C(=O)O)c12
7.03
CCc1ncc(C#N)c2c(=O)n(CCOc3ccc(Cl)cc3-c3cc(C)nc4c(C(=O)O)csc34)c(C)nc12
7.34
Cc1nc2cc(C(F)(F)F)c(OCC(F)(F)F)c(C#N)c2c(=O)n1CCOc1ccc(Cl)cc1-c1ccnc2c(C(=O)O)csc12
7.42

a. Cc1nc2c(C#N)ccc(C#N)c2c(=O)n1CCOc1ccc(Cl)cc1-c1ccnc2c(C(=O)O)csc12
b. Cc1cc(-c2cc(Cl)ccc2OCCn2c(C)nc3cnc(N4CCCC4=O)c(C#N)c3c2=O)c2scc(C(=O)O)c2n1
c. Cc1cc(-c2nc3c(=O)n(CCOc4ccc(Cl)cc4-c4ccc(C#N)c5c(C(=O)O)csc45)c(C)nc3cc2C(F)(F)F)ccn1 [788Fa]
d. Cc1cc(-c2cc(Cl)ccc2OCCn2c(C)nc3cc(C(F)(F)F)c(-c4ccccn4)c(C#N)c3c2=O)c2scc(C(=O)O)c2n1
e. Cc1nc2cc(C(F)(F)F)cc(C#N)c2c(=O)n1CCOc1ccc(Cl)cc1-c1cc(CN(C)C)nc2c(C(=O)O)csc12
Task: Task for the reader: rank each entry by its pIC50, from the minimum upward. Please list the labels in the order you were asked to rank them.
Output: c, a, e, b, d
(c: 5.71, a: 7.12, e: 7.48, b: 7.84, d: 8.47)

P. CCc1cc(-c2cc(Cl)ccc2OCCn2c(C)nc3cc(C(F)(F)F)c(-c4cccnc4)c(C#N)c3c2=O)c2scc(C(=O)O)c2n1
Q. Cc1cc(-c2cc(Cl)ccc2OCCn2c(C)nc3cnc(N(C)CC(F)F)c(C#N)c3c2=O)c2scc(C(=O)O)c2n1
Task: Which has the smaller recorded pIC50, P or Q ? Answer by stating the label of the chosen item.
Output: Q
(Q: 7.07, P: 7.73)

I. Cc1nc2cnc(N3CCN(C)CC3)c(C#N)c2c(=O)n1CC#Cc1ccc(Cl)cc1-c1ccnc2c(C(=O)O)csc12
II. Cc1cc(-c2cc(Cl)ccc2OCCn2c(C)nc3cc(C(F)(F)F)c(-c4ccn(C)n4)nc3c2=O)c2scc(C(=O)O)c2n1
Task: Exercise: compare I and II ; which one has the greater pIC50? I would appreciate it if you answered with the label of your choice.
Output: II
(II: 7.96, I: 7.68)
